B1: STEAP1 (parent)
chain: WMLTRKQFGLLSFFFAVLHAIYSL

# Variants of: B1
# Assay Info: protein stability index of a GFP-peptide fusion (GPS, HEK-293T) (PSI 1-6); higher = more stable;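 note: lentivirally expressed fusions sorted by FACS into six bins by GFP to DsRed ratio, PSI derived from sequencing read proportions per bin multiplied by bin number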
# Assay Context: c terminus: a fixed tail appended
If the reported protein stability index equals or exceeds 2, assign met. If not, assign not met.

Problem: Given the entry A16F , answer whether its protein stability index meets or surpasses 2.
Result: not met

Problem: Given the entry I21H , answer whether its protein stability index meets or surpasses 2.
Result: met

Problem: Given the entry V17L , answer whether its protein stability index meets or surpasses 2.
Result: not met

Problem: Given the entry W1L , answer whether its protein stability index meets or surpasses 2.
Result: met

Problem: Given the entry W1C , answer whether its protein stability index meets or surpasses 2.
Result: not met

Problem: Given the entry T4S , answer whether its protein stability index meets or surpasses 2.
Result: not met

Problem: Given the entry F15V , answer whether its protein stability index meets or surpasses 2.
Result: not met

Problem: Given the entry F14Y , answer whether its protein stability index meets or surpasses 2.
Result: not met
